Target: Phospholipase A2 (Apis mellifera)
Sequence (P00630 whole entry): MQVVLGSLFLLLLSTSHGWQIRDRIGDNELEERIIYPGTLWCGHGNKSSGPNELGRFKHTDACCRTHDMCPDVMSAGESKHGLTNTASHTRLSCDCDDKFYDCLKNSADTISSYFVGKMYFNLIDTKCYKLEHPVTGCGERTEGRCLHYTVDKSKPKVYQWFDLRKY
Experiment: Inhibition of bee venom phospholipase A2 preincubated for 1 hr followed by addition of phosphotidylcholine and 1-palmitoyl-2-(1-14C) palmitoyl further incubated for 10 mins and measured after 15 secs by scintillation counting method
pIC50: −log10 of the molar value.
MEASUREMENT_TYPE: pIC50

QUERY: Find the measured pIC50 of CC(C)(C)C(=O)OC(CCCCCCCCCCCCC(OC(=O)C(C)(C)C)C1=CC(=O)OC1OC(=O)Nc1ccccc1)C1=CC(=O)OC1OC(=O)Nc1ccccc1 (stereo unspecified) and report it.
RESULT: < 6.00

====

Tested on: CCRF-CEM
Experiment: Antiproliferative activity against human CEM cells assessed as reduction in cell viability incubated for 48 hrs by coulter counter method
Assay type: functional, cell-based
MEASUREMENT_TYPE: IC50

QUERY: Retrieve IC50 measured for C/C(=C\c1occ2cc3oc(=O)ccc3cc12)C1=CC(=O)C(C)(C)O1 and print it.
RESULT: 40 to 79 µM

====

Experiment: Cytotoxicity against dog MDCK cells assessed as reduction in cell viability incubated for 24 hrs by MTT assay
Assay type: cell-based, Canis lupus familiaris
Details: read-out: LD50
MEASUREMENT_TYPE: CC50 at 24 h

QUERY: Please give the documented CC50 at 24 h of O=C1OC(c2ccccc2)=C/C1=N/Nc1ccc(Br)cc1
RESULT: < 100 µg/mL

====

Target: Cyclin-dependent kinase 5/CDK5 activator 1 (Homo sapiens)
Sequence (Q00535 whole entry): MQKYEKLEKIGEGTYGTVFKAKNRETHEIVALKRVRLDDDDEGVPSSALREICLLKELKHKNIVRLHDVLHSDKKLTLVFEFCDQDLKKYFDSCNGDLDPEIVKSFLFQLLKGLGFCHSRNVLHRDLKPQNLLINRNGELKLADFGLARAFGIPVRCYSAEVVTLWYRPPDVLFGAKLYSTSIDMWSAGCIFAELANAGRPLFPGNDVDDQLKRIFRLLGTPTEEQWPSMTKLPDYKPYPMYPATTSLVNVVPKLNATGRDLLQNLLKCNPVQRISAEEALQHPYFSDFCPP
Sequence (Q15078 whole entry, further chain): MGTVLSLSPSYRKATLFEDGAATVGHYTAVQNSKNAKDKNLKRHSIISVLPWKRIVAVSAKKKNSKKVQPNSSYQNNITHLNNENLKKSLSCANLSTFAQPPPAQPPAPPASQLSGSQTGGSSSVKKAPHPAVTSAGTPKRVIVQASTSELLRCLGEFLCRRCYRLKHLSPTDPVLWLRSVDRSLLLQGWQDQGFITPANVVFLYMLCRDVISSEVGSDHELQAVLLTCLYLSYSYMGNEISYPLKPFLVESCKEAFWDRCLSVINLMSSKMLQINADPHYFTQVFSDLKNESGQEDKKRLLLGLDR
Assay: Inhibition of CDK5/p25 (unknown origin)
Type: protein-complex assay
MEASUREMENT_TYPE: pIC50
Quick note: pIC50 means taking -log10 of the concentration in moles per liter.

QUERY: Return value of pIC50 for input COc1ccc(C2OC(=O)C(O)=C2I)cc1OC (stereo unspecified) , no commentary.
RESULT: 5.00

====

Tested on: CYP3A4
Assay: Inhibition of CYP3A4 in Sprague-Dawley rat liver microsome assessed as remaining activity by measuring 1'-hydroxylation of midazolam at 3 x 10^-5 M after 20 mins
Assay type: ADME
Conditions: liver microsomes, probe midazolam (1'-hydroxylation), read-out: INH
MEASUREMENT_TYPE: activity at 20 min, 30 µM (%)
Number in %, nothing else.

QUERY: Quickly give me recorded activity at 20 min, 30 µM for COC(=O)C1=C(C)OC(C)(C)C1=O
RESULT: 57.1

====

Molecular target: GABA-A receptor; anion channel
Assay: Displacement of [35S]TBPS from GABAA (unknown origin) incubated for 90 mins by scintillation counting method
pIC50 reference
Hey, just a heads up that pIC50 is the negative log base 10 of the concentration in molar.

Illustrative cases are given below, each with its answer.
{"MOLECULE": "O=C1OCCC1CC(F)(F)F (centres undefined)", "OBSERVED_RESULT": 3.98}
{"MOLECULE": "CCC1(C)CC(C)(C(F)(F)F)OC1=O (centres undefined)", "OBSERVED_RESULT": 3.65}
{"MOLECULE": "CC(C1CCOC1=O)C(F)(F)F (centres undefined)", "OBSERVED_RESULT": 3.85}

Field: next molecule
QUERY: Give pIC50 for the following molecule: CC1(CC(F)(F)F)COC(=O)C1 (centres undefined)
RESULT: 5.10

====

Target: Phospholipase A2 (Apis mellifera, UniProt P00630)
Assay: Inhibition of bee venom phospholipase A2
MEASUREMENT_TYPE: pIC50
FYI, pIC50 means -log10 of a concentration in mol per litre.

QUERY: Input O=C1OC(O)C(/C=C/c2ccccc2)=C1F (stereo unspecified) , output reported pIC50.
RESULT: 5.52

====

Molecular target: Prostaglandin G/H synthase 2 (Homo sapiens, UniProt P35354)
Sequence (P35354 whole entry): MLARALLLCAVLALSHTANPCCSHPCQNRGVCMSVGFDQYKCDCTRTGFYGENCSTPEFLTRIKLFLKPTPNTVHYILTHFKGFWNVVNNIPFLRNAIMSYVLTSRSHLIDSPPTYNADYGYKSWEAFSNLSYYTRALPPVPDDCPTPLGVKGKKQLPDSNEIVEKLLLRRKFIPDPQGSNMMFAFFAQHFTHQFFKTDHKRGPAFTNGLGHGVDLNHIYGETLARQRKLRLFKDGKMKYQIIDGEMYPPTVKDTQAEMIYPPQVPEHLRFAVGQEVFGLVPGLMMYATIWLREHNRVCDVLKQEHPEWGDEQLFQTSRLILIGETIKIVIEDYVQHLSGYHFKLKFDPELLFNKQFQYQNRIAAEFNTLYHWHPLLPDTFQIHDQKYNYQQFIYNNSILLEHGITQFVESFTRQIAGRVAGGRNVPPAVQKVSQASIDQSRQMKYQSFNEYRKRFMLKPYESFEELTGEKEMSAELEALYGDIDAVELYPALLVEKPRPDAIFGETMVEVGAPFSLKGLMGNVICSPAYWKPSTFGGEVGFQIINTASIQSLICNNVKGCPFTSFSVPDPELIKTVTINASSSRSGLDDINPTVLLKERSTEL
Experiment: Inhibition of recombinant human COX2 expressed in baculovirus infected Sf9 cells
pIC50: −log10 of the molar value.
# reported pIC50; entries follow

{"COMPOUND": "CS(=O)(=O)c1ccc(C2=C3c4ccccc4CCC3OC2=O)cc1 (configuration not stated)", "pIC50": "6.22 to 6.30"}

We now examine a further compound.
QUERY: Give the reported value of pIC50 for this record: Cc1ccc2c(c1)C1=C(c3ccc(S(C)(=O)=O)cc3)C(=O)OC1CC2 (configuration not stated)
RESULT: 6.22 to 6.30

====

Molecular target: Prostaglandin G/H synthase 2 (Mus musculus, UniProt Q05769)
Sequence (Q05769 whole entry): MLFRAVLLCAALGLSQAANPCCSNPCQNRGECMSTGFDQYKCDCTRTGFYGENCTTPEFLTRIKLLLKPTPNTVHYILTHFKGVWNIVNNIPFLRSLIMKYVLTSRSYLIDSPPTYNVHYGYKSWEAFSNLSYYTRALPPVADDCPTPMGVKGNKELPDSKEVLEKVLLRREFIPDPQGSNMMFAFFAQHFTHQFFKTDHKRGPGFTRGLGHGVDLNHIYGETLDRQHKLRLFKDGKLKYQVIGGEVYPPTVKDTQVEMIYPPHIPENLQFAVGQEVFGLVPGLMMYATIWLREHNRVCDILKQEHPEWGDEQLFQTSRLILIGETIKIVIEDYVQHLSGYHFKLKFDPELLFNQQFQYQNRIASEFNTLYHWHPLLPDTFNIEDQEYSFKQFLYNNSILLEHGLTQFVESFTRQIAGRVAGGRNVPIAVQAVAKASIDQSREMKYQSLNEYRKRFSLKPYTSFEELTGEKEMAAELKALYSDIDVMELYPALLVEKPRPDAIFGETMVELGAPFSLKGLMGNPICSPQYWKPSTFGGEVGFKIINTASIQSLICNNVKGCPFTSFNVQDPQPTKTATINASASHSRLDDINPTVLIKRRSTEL
Experiment: Inhibition of mouse COX-2 in LPS-induced mouse peritoneal macrophage assessed as reduction in PGE2 release incubated for 2 hrs by ELISA
MEASUREMENT_TYPE: pIC50
Expect pIC50 as a plain number equal to -log10 of the molar concentration.

QUERY: Please look at this compound and report its pIC50: CC1(C)OC(c2ccc(S(C)(=O)=O)cc2)=C(c2cccc(F)c2)C1=O
RESULT: 8.08

====

Test system: MOLT-4F
Assay: Antiproliferative activity against human MOLT4F cells assessed as reduction in cell viability incubated for 72 hrs by coulter counter method
Type: functional, cell-based
pIC50: −log10 of the molar value.
MEASUREMENT_TYPE: pIC50

QUERY: // fetch pIC50 given entry C/C(=C\c1occ2cc3oc(=O)ccc3cc12)C1=CC(=O)C(C)(C)O1
RESULT: 4.10 to 4.40

====

Target: Prostaglandin G/H synthase 2 (Oryctolagus cuniculus)
Sequence (O02768 whole entry): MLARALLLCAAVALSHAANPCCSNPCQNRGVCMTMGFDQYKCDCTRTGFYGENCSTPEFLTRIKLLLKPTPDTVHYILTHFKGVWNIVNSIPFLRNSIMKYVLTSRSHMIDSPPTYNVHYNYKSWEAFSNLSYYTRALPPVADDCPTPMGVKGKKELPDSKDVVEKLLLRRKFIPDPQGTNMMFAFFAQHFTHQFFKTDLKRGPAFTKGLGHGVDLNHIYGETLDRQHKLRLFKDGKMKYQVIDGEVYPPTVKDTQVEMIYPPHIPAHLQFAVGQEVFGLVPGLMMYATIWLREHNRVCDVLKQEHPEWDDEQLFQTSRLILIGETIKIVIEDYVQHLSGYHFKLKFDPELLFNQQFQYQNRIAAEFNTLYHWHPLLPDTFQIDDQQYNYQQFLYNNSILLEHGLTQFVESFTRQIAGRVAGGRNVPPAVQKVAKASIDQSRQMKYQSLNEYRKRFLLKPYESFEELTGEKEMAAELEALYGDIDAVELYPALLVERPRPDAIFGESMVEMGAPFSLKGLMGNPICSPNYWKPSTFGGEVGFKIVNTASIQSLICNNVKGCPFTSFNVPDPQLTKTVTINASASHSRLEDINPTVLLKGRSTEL
Experiment: Inhibition of COX2 in rabbit whole blood assessed as reduction of LPS-induced PGE2 accumulation at 10 to 10000 nM preincubated with LPS followed by compound addition and incubated for 6 or 24 hrs by EIA method
MEASUREMENT_TYPE: IC50 (nM)
Quick reminder: number only, in nM, skip the unit.

QUERY: Please supply the value of reported IC50 for the item CS(=O)(=O)c1ccc(C2=C(c3ccc(F)c(F)c3)C(=O)OC2)cc1
RESULT: 2800

====

Test system: Liver
Assay: Antioxidant activity in rat liver microsomes assessed as reduction in ferrous salt/ascorbic acid-induced lipid peroxidation of membrane lipids by measuring malondialdehyde level after 90 mins by spectrophotometry
Assay type: functional, Microsome
Conditions: 1.5 h
MEASUREMENT_TYPE: pIC50
Entry type: numeric. Quantity: pIC50, the -log10 of concentration in molar units.

QUERY: Report pIC50 from Liver testing of O=C1OC(c2cccc(O)c2O)C(c2ccccc2)=C1O (stereo unspecified)
RESULT: 3.89

====

Assay: Acute toxicity in Swiss albino mouse assessed as reduction in mortality of animal at 200 to 800 mg/kg , ip observed for 8 days
Assay type: organism-based
Conditions: in vivo
MEASUREMENT_TYPE: LD50 at 192 h (mg/kg)
Just the number please, in mg/kg, no unit attached.

QUERY: Fill in LD50 at 192 h for record COc1cc(C2OC(=O)CC2C(C)=O)cc(OC)c1O (configuration not stated)
RESULT: 200
